- experimental_target: T1, Human MuSK (R&D Systems, cat. 10189-MK, histidine tag) (human, UniProt O15146 24-495)
- T1 construct: Bought protein; also called human monomeric MuSK-6xhis; not shown: histidine tag (6xhis)
- T1 sequence: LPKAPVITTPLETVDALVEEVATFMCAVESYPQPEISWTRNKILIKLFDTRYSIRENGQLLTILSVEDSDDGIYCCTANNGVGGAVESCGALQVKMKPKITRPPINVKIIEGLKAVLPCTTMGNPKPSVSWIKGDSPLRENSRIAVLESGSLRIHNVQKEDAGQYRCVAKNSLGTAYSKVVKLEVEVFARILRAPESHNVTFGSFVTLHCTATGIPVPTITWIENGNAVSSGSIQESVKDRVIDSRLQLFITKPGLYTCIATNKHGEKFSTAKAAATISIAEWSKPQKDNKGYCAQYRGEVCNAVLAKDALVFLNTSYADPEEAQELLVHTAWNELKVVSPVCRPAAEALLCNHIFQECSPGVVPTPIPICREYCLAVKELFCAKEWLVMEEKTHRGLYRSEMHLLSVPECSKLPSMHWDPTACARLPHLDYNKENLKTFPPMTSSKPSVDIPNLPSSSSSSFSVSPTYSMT
- experiment_summary: SPR (Biacore), MuSK-coated chip presaturated with 500 nM 3F6c (competitor)
Below is a list of entries, each paired with its recorded normalized extra amplitude (%) value.

binder	normalized extra amplitude (%)
3F6c (antibody, human IgG1, kappa, L234A L235A, V domains shown) VH: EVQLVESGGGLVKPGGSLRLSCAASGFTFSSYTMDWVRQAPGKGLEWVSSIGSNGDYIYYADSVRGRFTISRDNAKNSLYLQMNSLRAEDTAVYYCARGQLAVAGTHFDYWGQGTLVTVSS VL: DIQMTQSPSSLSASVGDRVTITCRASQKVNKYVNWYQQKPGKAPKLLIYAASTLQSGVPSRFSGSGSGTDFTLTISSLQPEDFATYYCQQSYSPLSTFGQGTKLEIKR	0
3B5 (antibody, V domains shown, also called 3B5wt) VH: QVQLVQSGAVVAKPGASVQVSCKTSGYTFTGQYLHWVRQAPGQGLEWIGWINPSSGVTKFAEKFEGRATMTRDTSITTAYIDLRSLRSDDTATYYCATLSLGVYYVGMVAWGQGTLVTVSS VL: ELTQPPSVSVSPGQTATITCSGDGLAQQHVYWFQQRPGQAPLLIIYKDIERPSGIPERFSGSSSGTTAMLTISGVQAEDEADYYCQSGDRTATSVLFGGGTKMTVLG	395
3D9b (antibody, human IgG1, kappa, L234A L235A, V domains shown) VH: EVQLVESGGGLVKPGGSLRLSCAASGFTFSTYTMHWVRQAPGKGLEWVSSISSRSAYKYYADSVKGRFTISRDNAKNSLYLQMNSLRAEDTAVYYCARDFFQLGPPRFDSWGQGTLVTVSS VL: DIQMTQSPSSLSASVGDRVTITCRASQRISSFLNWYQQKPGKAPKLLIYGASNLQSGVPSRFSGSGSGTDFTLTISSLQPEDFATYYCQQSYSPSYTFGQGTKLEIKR	9.7
4D3 (antibody, human IgG1, kappa, L234A L235A, V domains shown) VH: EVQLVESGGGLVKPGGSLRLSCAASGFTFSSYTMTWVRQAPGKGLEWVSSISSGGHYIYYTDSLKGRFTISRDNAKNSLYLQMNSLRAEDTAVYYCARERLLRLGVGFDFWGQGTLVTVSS VL: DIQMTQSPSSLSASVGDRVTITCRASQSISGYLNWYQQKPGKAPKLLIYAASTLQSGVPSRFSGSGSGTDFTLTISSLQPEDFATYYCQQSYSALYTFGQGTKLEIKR	1.1
